Tested on: Yellow Fever Mosquito (Aedes aegypti, AEDSAE)
Assay: Bioassay on Yellow Fever Mosquito (YFM) larvae, 96-well plate
Assay type: in vivo
Conditions: about 1 day-old larvae, room temperature, 3 days, scored on mortality
Description: Certain molecules disclosed in this document were tested against YFM using procedures described in the following paragraph. In the reporting of the results, the “GPA & YFM Rating Table” was used (See Table Section). […] The day before plates are to be treated, mosquito eggs are placed in Millipore water containing liver powder to begin hatching (4 g. into 400 mL). […] After 3 days, each well is observed and scored based on mortality. […]
Reported Endpoint: YFM % Control (or Mortality) rating

| Molecule | Observed Measurement |
| --- | --- |
| O=C(NCCC1CC1)c1cc(NC(=O)C2C(c3cc(Cl)c(Cl)c(Cl)c3)C2(Cl)Cl)ccc1Cl (stereo not shown) [F26] | A (80-100) |
| O=C(NCCCC(F)(F)F)c1cc(NC(=O)[C@H]2[C@H](c3cc(Cl)cc(Cl)c3)C2(Cl)Cl)ccc1Cl (relative stereo) [F72] | A (80-100) |
| O=C(NCC(F)(F)F)c1cc(NC(=O)[C@H]2[C@H](c3ccc(C(F)F)c(Cl)c3)C2(Cl)Cl)ccc1Cl (relative stereo) [F132] | A (80-100) |

---

Test system: Green Peach Aphid (Myzus persicae, MYZUPE)
Test: Bioassay on Green Peach Aphid (GPA), foliar spray on cabbage seedlings
Assay type: in vivo
Settings: 72 h, 200 ppm spray on infested cabbage seedlings, three days, Abbott corrected % control, read-out: GPA % Control (or Mortality) rating

| Molecule | mortality at 200 ppm |
| --- | --- |
| O=C(NOCC1CC1(F)F)c1cc(NC(=O)C2C(c3cc(Cl)c(Cl)c(Cl)c3)C2(Cl)Cl)ccc1Cl (stereo not shown) [F23] | 80 to 100% |
| O=C(NCCc1ccc(F)cc1)c1cc(NC(=O)C2C(c3cc(Cl)cc(Cl)c3)C2(Cl)Cl)ccc1Cl (stereo not shown) [F19] | 0 to 80% |
| O=C(NCc1ccc(C(F)(F)F)cc1)c1cc(NC(=O)[C@H]2[C@H](c3cc(Cl)cc(Cl)c3)C2(Cl)Cl)ccc1Cl (relative stereo) [F41] | 0% |
| O=C(NOCC1CC1(F)F)c1cc(NC(=O)C2C(c3cc(Cl)cc(Cl)c3)C2(Cl)Cl)ccc1Cl (stereo not shown) [F21] | 0 to 80% |
| COc1ccc(CNC(=O)c2cc(NC(=O)[C@H]3[C@H](c4cc(Cl)cc(Cl)c4)C3(Cl)Cl)ccc2Cl)c(OC)c1 (relative stereo) [F34] | 0% |
| CN(CC(F)(F)F)C(=O)c1cc(NC(=O)[C@H]2[C@H](c3cc(Cl)cc(Cl)c3)C2(Cl)Cl)ccc1Cl (relative stereo) [F59] | 0 to 80% |
| O=C(NOCc1ccc(F)cc1)c1cc(NC(=O)C2C(c3cc(Cl)c(Cl)c(Cl)c3)C2(Cl)Cl)ccc1Cl (stereo not shown) [F18] | 0 to 80% |

---

We begin with a simple list: items and their reported mortality at 50 µg/cm2.
System: Beet Armyworm (Spodoptera exigua, LAPHEG)
Assay: Bioassay on Beet Armyworm (BAW), 128-well diet tray assay
Type: in vivo
Conditions: 168 h, 50 μg/cm^2 on artificial diet, second instar larvae, 25° C., five to seven days, average of eight wells, read-out: BAW % Control (or Mortality) rating

| Compound | mortality at 50 µg/cm2 |
| --- | --- |
| C#CCNC(=O)c1cc(NC(=O)[C@H]2[C@H](c3cc(Cl)cc(Cl)c3)C2(Cl)Cl)ccc1Cl (relative stereo) | 50 to 100% |
| O=C(NCCC1CC1)c1cc(NC(=O)C2C(c3cc(Cl)cc(Cl)c3)C2(Cl)Cl)ccc1Cl (stereo not shown) | 50 to 100% |
| O=C(NCC(F)(F)F)c1cc(NC(=O)[C@H]2[C@H](c3ccc(Br)c(Br)c3)C2(Cl)Cl)ccc1Cl (relative stereo) | 50 to 100% |
| O=C(NCCF)c1cc(NC(=O)[C@H]2[C@H](c3ccc(F)c(Cl)c3)C2(Cl)Cl)ccc1Cl (relative stereo) | 50 to 100% |
| CCCNC(=O)c1cc(NC(=O)[C@H]2[C@H](c3cc(Cl)cc(Cl)c3)C2(Cl)Cl)ccc1Cl (relative stereo) | 50 to 100% |
| CS(=O)(=O)CCNC(=O)c1cc(NC(=O)[C@H]2[C@H](c3cc(Cl)cc(Cl)c3)C2(Cl)Cl)ccc1Cl (relative stereo) | 50 to 100% |
| O=C(NCCCOCC(F)(F)F)c1cc(NC(=O)[C@H]2[C@H](c3cc(Cl)cc(Cl)c3)C2(Cl)Cl)ccc1Cl (relative stereo) | 50 to 100% |

---

Tested on: Green Peach Aphid (Myzus persicae, MYZUPE)
Assay: Bioassay on Green Peach Aphid (GPA), foliar spray on cabbage seedlings
Type: in vivo
Settings: 72 h, 200 ppm spray on infested cabbage seedlings, three days, Abbott corrected % control, read-out: GPA % Control (or Mortality) rating

| Compound | Assay Target | mortality at 200 ppm |
| --- | --- | --- |
| O=C(NCc1ccc(F)c(F)c1)c1cc(NC(=O)[C@H]2[C@H](c3cc(Cl)cc(Cl)c3)C2(Cl)Cl)ccc1Cl (relative stereo) | Green Peach Aphid (Myzus persicae, MYZUPE) | 0 to 80% |
| CC(C)(C)c1ccc(CNC(=O)c2cc(NC(=O)C3C(c4cc(Cl)cc(Cl)c4)C3(Cl)Cl)ccc2Cl)cc1 (stereo not shown) | Green Peach Aphid (Myzus persicae, MYZUPE) | 0% |
| O=C(NCCOCC1CC1)c1cc(NC(=O)[C@H]2[C@H](c3cc(Cl)cc(Cl)c3)C2(Cl)Cl)ccc1Cl (relative stereo) | Green Peach Aphid (Myzus persicae, MYZUPE) | 80 to 100% |
| O=C(NCc1ccc(F)cc1)c1cc(NC(=O)[C@H]2[C@H](c3cc(Cl)cc(Cl)c3)C2(Cl)Cl)ccc1Cl (relative stereo) | Green Peach Aphid (Myzus persicae, MYZUPE) | 80 to 100% |
| CCCCNC(=O)c1cc(NC(=O)[C@H]2[C@H](c3cc(Cl)cc(Cl)c3)C2(Cl)Cl)ccc1Cl (relative stereo) | Green Peach Aphid (Myzus persicae, MYZUPE) | 80 to 100% |
| O=C(NCc1ccncc1)c1cc(NC(=O)[C@H]2[C@H](c3cc(Cl)c(Cl)c(Cl)c3)C2(Cl)Cl)ccc1Cl (relative stereo) | Green Peach Aphid (Myzus persicae, MYZUPE) | 0 to 80% |
| O=C(NCC(O)C(F)(F)F)c1cc(NC(=O)[C@H]2[C@H](c3cc(Cl)cc(Cl)c3)C2(Cl)Cl)ccc1Cl (relative stereo) | Green Peach Aphid (Myzus persicae, MYZUPE) | 80 to 100% |
| C[C@H](CSCC(F)(F)F)NC(=O)c1cc(NC(=O)C2C(c3cc(Cl)cc(Cl)c3)C2(Cl)Cl)ccc1Cl (stereo in doubt) | Green Peach Aphid (Myzus persicae, MYZUPE) | 80 to 100% |
| CCCCCNC(=O)c1cc(NC(=O)[C@H]2[C@H](c3cc(Cl)cc(Cl)c3)C2(Cl)Cl)ccc1Cl (relative stereo) | Green Peach Aphid (Myzus persicae, MYZUPE) | 0 to 80% |
| C#CCNC(=O)c1cc(NC(=O)[C@H]2[C@H](c3cc(Cl)cc(Cl)c3)C2(Cl)Cl)ccc1Cl (relative stereo) | Green Peach Aphid (Myzus persicae, MYZUPE) | 80 to 100% |
| C[C@H](CS(=O)(=O)CC(F)(F)F)NC(=O)c1cc(NC(=O)C2C(c3cc(Cl)cc(Cl)c3)C2(Cl)Cl)ccc1Cl (stereo in doubt) | Green Peach Aphid (Myzus persicae, MYZUPE) | 0 to 80% |
| O=C(NCC1CC1)c1cc(NC(=O)[C@H]2[C@H](c3cc(Cl)cc(Cl)c3)C2(Cl)Cl)ccc1Cl (relative stereo) | Green Peach Aphid (Myzus persicae, MYZUPE) | 80 to 100% |
| CNC(=O)c1cc(NC(=O)[C@H]2[C@H](c3cc(Cl)cc(Cl)c3)C2(Cl)Cl)ccc1C(F)(F)F (relative stereo) | Green Peach Aphid (Myzus persicae, MYZUPE) | 0 to 80% |

---

System: Beet Armyworm (Spodoptera exigua, LAPHEG)
Test: Bioassay on Beet Armyworm (BAW), 128-well diet tray assay
Assay type: in vivo
Conditions: 168 h, 50 μg/cm^2 on artificial diet, second instar larvae, 25° C., five to seven days, average of eight wells, read-out: BAW % Control (or Mortality) rating

| Compound | Assay Target | mortality at 50 µg/cm2 |
| --- | --- | --- |
| O=C(NCCOCC1CC1)c1cc(NC(=O)[C@H]2[C@H](c3cc(Cl)cc(Cl)c3)C2(Cl)Cl)ccc1Cl (relative stereo) [F43] | Beet Armyworm (Spodoptera exigua, LAPHEG) | 50 to 100% |
| O=C(NCCF)c1cc(NC(=O)[C@H]2[C@H](c3cc(Cl)cc(Cl)c3)C2(Cl)Cl)c(Cl)cc1Cl (relative stereo) [F99] | Beet Armyworm (Spodoptera exigua, LAPHEG) | 50 to 100% |
| CCCCCNC(=O)c1cc(NC(=O)[C@H]2[C@H](c3cc(Cl)cc(Cl)c3)C2(Cl)Cl)ccc1Cl (relative stereo) [F33] | Beet Armyworm (Spodoptera exigua, LAPHEG) | 50 to 100% |
| O=C(NCC(F)(F)F)c1cc(NC(=O)[C@H]2[C@H](c3ccc(C(F)(F)F)c(Cl)c3)C2(Cl)Cl)ccc1Cl (relative stereo) [F116] | Beet Armyworm (Spodoptera exigua, LAPHEG) | 50 to 100% |
| O=C(NCc1ccncc1)c1cc(NC(=O)[C@H]2[C@H](c3cc(Cl)cc(Cl)c3)C2(Cl)Cl)ccc1Cl (relative stereo) [F12] | Beet Armyworm (Spodoptera exigua, LAPHEG) | 50 to 100% |
| O=C(NCc1ccc(F)cc1)c1cc(NC(=O)[C@H]2[C@H](c3cc(Cl)cc(Cl)c3)C2(Cl)Cl)ccc1Cl (relative stereo) [F28] | Beet Armyworm (Spodoptera exigua, LAPHEG) | 50 to 100% |
| O=C(NCC(F)(F)F)c1cc(NC(=O)C2C(c3cc(F)c(F)c(F)c3)C2(Cl)Cl)ccc1Cl (stereo not shown) [F126] | Beet Armyworm (Spodoptera exigua, LAPHEG) | 50 to 100% |
